Reference for the values: the supplement of paper PMC10567573

B1: PLAGL1 (parent)
chain: DPNKMAFGCEECGKKYNTMLGYKR

Variants of: B1
Assay: protein stability index of a GFP-peptide fusion (GPS, HEK-293T) (PSI 1-6); higher = more stable;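 further: lentivirally expressed fusions sorted by FACS into six bins by GFP to DsRed ratio, PSI derived from sequencing read proportions per bin multiplied by bin number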
Conditions: c terminus: a fixed tail appended
Each entry below lists one item and its recorded protein stability index value.
measuredMetric: protein stability index

{"variantKey": "A6P", "dataValue": 2.53}
{"variantKey": "G21R", "dataValue": 2.94}
{"variantKey": "R24G", "dataValue": 2.74}
{"variantKey": "E11V", "dataValue": 2.79}
{"variantKey": "A6G", "dataValue": 2.02}
{"variantKey": "Y16S", "dataValue": 2.62}
{"variantKey": "L20D", "dataValue": 2.82}
{"variantKey": "N3C", "dataValue": 2.23}
{"variantKey": "N17T", "dataValue": 1.99}
{"variantKey": "M19G", "dataValue": 2.64}
{"variantKey": "T18I", "dataValue": 2.63}
{"variantKey": "G8C", "dataValue": 2.19}
{"variantKey": "R24A", "dataValue": 3.02}
{"variantKey": "D1K", "dataValue": 2.09}
{"variantKey": "E11P", "dataValue": 2.83}
{"variantKey": "M19P", "dataValue": 2.27}
{"variantKey": "E10H", "dataValue": 2.11}
{"variantKey": "L20K", "dataValue": 3.26}
{"variantKey": "K23I", "dataValue": 2.95}
{"variantKey": "L20Y", "dataValue": 2.1}
{"variantKey": "K23G", "dataValue": 2.21}
{"variantKey": "K15C", "dataValue": 2.63}
